target system: recombinant human FAAH (rhFAAH) (Homo sapiens, UniProt O00519)
Construct: purchased Cayman Chemical (Ann Arbor, MI, USA)
Sequence (O00519 whole entry): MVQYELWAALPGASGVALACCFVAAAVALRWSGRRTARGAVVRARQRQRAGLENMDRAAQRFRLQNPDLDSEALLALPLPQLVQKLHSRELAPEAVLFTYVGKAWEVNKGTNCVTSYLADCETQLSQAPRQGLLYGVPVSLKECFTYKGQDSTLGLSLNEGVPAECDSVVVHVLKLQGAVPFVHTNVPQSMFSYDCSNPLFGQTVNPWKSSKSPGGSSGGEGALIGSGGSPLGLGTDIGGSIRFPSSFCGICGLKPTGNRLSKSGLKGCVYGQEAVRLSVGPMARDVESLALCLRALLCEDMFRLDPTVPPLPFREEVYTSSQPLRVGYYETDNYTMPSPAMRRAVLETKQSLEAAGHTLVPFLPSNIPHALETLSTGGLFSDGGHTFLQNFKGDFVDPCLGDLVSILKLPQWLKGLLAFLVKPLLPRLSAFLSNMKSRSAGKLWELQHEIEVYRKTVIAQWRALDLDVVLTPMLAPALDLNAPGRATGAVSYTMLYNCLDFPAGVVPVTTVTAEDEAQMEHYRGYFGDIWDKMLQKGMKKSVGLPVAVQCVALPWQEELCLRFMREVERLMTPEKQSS
assay summary: FAAH substrate evaluation (formation of acid metabolite, LC-MS/MS)
Type: biochemical
Set-up: key: A: ke is equal to or less than 1.0; B: ke is greater than 1.0 and less than or equal to 2.5; C: ke is greater than 2.5; NC: no conversion
stated conditions: 0.5 ng/μL rhFAAH, 1 μM test compound, pH 8.0, room temperature, 0-60 minutes
metric: ke, observed rate constant for the acid metabolite formation

CNC(=O)CSCc1cc(Cl)c(Cc2ccc(O)c(C(C)C)c2)c(Cl)c1 [Compound 193] :: NC
CNC(=O)/C=C/c1cc(Cl)c(Cc2ccc(O)c(C(C)C)c2F)c(Cl)c1 [Compound 115] :: NC
CC(C)c1cc(Cc2c(Cl)cc(CSCC(=O)N(C)C)cc2Cl)ccc1O [Compound 191] :: NC
Cc1cc(CSCC(=O)NC2CCCCC2)cc(Cl)c1Cc1ccc(O)c(C(C)C)c1 [Compound 131] :: NC

---

target system: recombinant human FAAH (rhFAAH) (Homo sapiens, UniProt O00519)
Construct: purchased Cayman Chemical (Ann Arbor, MI, USA)
assay summary: FAAH substrate evaluation (formation of acid metabolite, LC-MS/MS)
Assay type: biochemical
Set-up: key: A: ke is equal to or less than 1.0; B: ke is greater than 1.0 and less than or equal to 2.5; C: ke is greater than 2.5; NC: no conversion
stated conditions: 0.5 ng/μL rhFAAH, 1 μM test compound, pH 8.0, room temperature, 0-60 minutes
metric: ke, observed rate constant for the acid metabolite formation

CC(C)c1cc(Cc2c(Cl)cc(SCC(=O)NC34CC(C3)C4)cc2Cl)ccc1O [Compound 178] :: NC

---

target system: TRβ (Homo sapiens)
Construct: expressed in transfected cells; host or cells: HEK293
Sequence (P10828 217-461 limits assumed): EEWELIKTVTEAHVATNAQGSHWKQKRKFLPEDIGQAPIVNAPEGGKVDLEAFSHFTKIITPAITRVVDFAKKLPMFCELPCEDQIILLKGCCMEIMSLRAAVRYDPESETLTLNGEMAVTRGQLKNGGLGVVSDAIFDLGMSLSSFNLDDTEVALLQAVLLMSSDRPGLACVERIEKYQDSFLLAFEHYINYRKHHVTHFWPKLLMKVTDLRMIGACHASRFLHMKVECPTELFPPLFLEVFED
assay summary: TR reporter-gene assay (Gal4 DBD hybrid, luciferase), TRβ
Format: cell-based
stated conditions: class symbols
metric: T3-SI (selectivity index, EC50 (TRα)/EC50 (TRβ))

Consider the reported T3-SI (selectivity index, EC50 (TRα)/EC50 (TRβ)) for these molecules:
CC(C)c1cc(Cc2c(Cl)cc([S+]([O-])CC(=O)O)cc2Cl)ccc1O (centres unmarked) :: +++ (T3-SI > 30×)
CC(C)c1c(O)ccc(Cc2c(Cl)cc(C(C)C(=O)O)cc2Cl)c1F (centres unmarked) :: ++ (3× < T3-SI ≤ 30×)
CC(C)c1cc(Cc2c(Cl)cc(CCCC(=O)O)cc2Cl)ccc1O :: +++ (T3-SI > 30×)
CC(C)c1cc(Cc2c(Cl)cc(CNCC(=O)O)c(F)c2Cl)ccc1O :: ++ (3× < T3-SI ≤ 30×)
C/C(=C\c1cc(Cl)c(Cc2ccc(O)c(C(C)C)c2F)c(Cl)c1)C(=O)O :: ++ (3× < T3-SI ≤ 30×)

Fill in reported T3-SI (selectivity index, EC50 (TRα)/EC50 (TRβ)) for this entry: Cc1cc(CSCC(=O)O)c(F)c(Cl)c1Cc1ccc(O)c(C(C)C)c1
++ (3× < T3-SI ≤ 30×)

Report measured T3-SI (selectivity index, EC50 (TRα)/EC50 (TRβ)); entry is CCOC(=O)/C(=C\c1cc(Cl)c(Cc2ccc(O)c(C(C)C)c2)c(Cl)c1)C(=O)O
++ (3× < T3-SI ≤ 30×)

Complete the entry with T3-SI (selectivity index, EC50 (TRα)/EC50 (TRβ)) for CC(C)c1cc(Cc2c(Cl)cc(CC(N)C(=O)O)cc2Cl)ccc1O (centres unmarked)
+ (T3-SI ≤ 3×)

// fetch T3-SI (selectivity index, EC50 (TRα)/EC50 (TRβ)) given entry Cc1cc(SCC(=O)O)cc(Cl)c1Cc1ccc(O)c(C(C)C)c1
++ (3× < T3-SI ≤ 30×)

Name the recorded T3-SI (selectivity index, EC50 (TRα)/EC50 (TRβ)) of the molecule listed here: CC(C)c1c(O)ccc(Cc2c(Cl)cc(CNCC(=O)O)cc2Cl)c1F
+ (T3-SI ≤ 3×)

Give a short answer stating reported T3-SI (selectivity index, EC50 (TRα)/EC50 (TRβ)) for Cc1cc(NCC(=O)O)c(F)c(Cl)c1Cc1ccc(O)c(C(C)C)c1 .
++ (3× < T3-SI ≤ 30×)

---

target system: TRα (Homo sapiens)
Construct: expressed in transfected cells; host or cells: HEK293
Sequence (P10827 1-410 isoform P10827-2): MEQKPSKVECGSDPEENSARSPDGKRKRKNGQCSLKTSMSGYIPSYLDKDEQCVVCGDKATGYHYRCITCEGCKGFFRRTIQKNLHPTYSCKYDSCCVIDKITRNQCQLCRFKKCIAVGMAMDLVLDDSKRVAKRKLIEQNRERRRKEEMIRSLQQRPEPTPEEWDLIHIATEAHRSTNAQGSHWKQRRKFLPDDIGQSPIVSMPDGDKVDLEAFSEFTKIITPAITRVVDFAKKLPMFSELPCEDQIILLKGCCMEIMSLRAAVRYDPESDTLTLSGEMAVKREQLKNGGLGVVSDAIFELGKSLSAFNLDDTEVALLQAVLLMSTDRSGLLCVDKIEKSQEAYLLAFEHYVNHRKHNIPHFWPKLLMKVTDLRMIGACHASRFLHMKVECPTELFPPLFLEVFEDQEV
assay summary: TR reporter-gene assay (Gal4 DBD hybrid, luciferase), TRα
Format: cell-based
stated conditions: HEK293-derived reporter cells, 24 hr treatment; read-out: TRα EC50
metric: EC50

// below: answered compounds
Cc1cc(NC(=O)CC(=O)O)cc(C)c1Cc1ccc(O)c(C(C)c2ccc(F)cc2)c1 (stereo not drawn) [Compound 4] :: 100 to 1000 nM
Cc1c(F)c(CNCC(=O)O)cc(Cl)c1Cc1ccc(O)c(C(C)C)c1 [Compound 221] :: 100 to 1000 nM
CC(c1ccc(F)cc1)c1c(O)ccc(Cc2c(Cl)cc(CCC(=O)O)cc2Cl)c1F (stereo not drawn) [Compound 18] :: 10 to 100 nM
CC(C)c1cc(Cc2c(Cl)cc(CC3NC(=O)NC3=O)cc2Cl)ccc1O (stereo not drawn) [Compound 144] :: 100 to 1000 nM
C=C(Cc1cc(Cl)c(Cc2ccc(O)c(C(C)C)c2F)c(Cl)c1)C(=O)O [Compound 201] :: < 10 nM

Look up EC50 of CC(C)c1cc(Cc2c(Cl)cc(SCC(=O)O)cc2Cl)ccc1O [Compound 91] and report it.
100 to 1000 nM

Consider the compound CC(C)c1cc(Cc2c(Cl)cc(NCC(=O)O)cc2Cl)ccc1O [Compound 20] and give its recorded EC50.
10 to 100 nM

For the compound CC(C)c1c(O)ccc(Cc2c(Cl)cc(OCCCC(=O)O)cc2Cl)c1F [Compound 52] , give its measured EC50 value.
100 to 1000 nM

Return EC50 (reported value) for this compound: CC(C)c1c(O)ccc(Cc2c(Cl)cc(CCC(=O)O)c(F)c2Cl)c1F [Compound 71]
10 to 100 nM

Give the reported EC50 for this compound. Cc1cc(C[S+]([O-])CC(=O)O)cc(Cl)c1Cc1ccc(O)c(C(C)C)c1 (stereo not drawn) [Compound 246]
> 1000 nM

For CC(C)c1cc(Cc2c(Cl)cc(OCCCC(=O)O)cc2Cl)ccc1O [Compound 24] , write its EC50.
100 to 1000 nM

Note EC50 for the compound shown: C/C(=C\c1cc(C)c(Cc2ccc(O)c(C(C)C)c2F)c(Cl)c1)C(=O)O [Compound 248]
10 to 100 nM

Provide EC50 value for the following compound: CC(c1ccc(F)cc1)c1c(O)ccc(Cc2c(Cl)cc(NC(=O)CC(=O)O)cc2Cl)c1F (stereo not drawn) [Compound 56]
100 to 1000 nM

Give the measured EC50 for CC(C)c1cc(Cc2c(Cl)cc(CC(N)C(=O)O)cc2Cl)ccc1O (stereo not drawn) [Compound 143]
10 to 100 nM

Could you please provide reported EC50 for CC(C)c1cc(Cc2c(Cl)cc(CSCC(=O)O)cc2Cl)ccc1O [Compound 95] ? Thanks!
10 to 100 nM

---

target system: TRα (Homo sapiens, UniProt P10827)
Construct: expressed in transfected cells; host or cells: HEK293
assay summary: TR reporter-gene assay (Gal4 DBD hybrid, luciferase), TRα
Assay type: cell-based
stated conditions: HEK293-derived reporter cells, 24 hr treatment; read-out: TRα EC50
metric: EC50

CC(C)c1cc(Cc2c(Cl)cc(OC(F)C(=O)O)cc2Cl)ccc1O (centres unmarked) [Compound 81] :: 100 to 1000 nM
CON(C)C(=O)CCc1cc(Cl)c(Cc2ccc(O)c(C(C)C)c2F)c(Cl)c1 [Compound 107] :: 100 to 1000 nM
CC(C)c1cc(Cc2c(Cl)cc(COCC(=O)O)cc2Cl)ccc1O [Compound 28] :: 10 to 100 nM

Provide only the value of recorded EC50 for CC(C)c1c(O)ccc(Cc2c(Cl)cc(CSCC(=O)O)cc2Cl)c1F [Compound 200]
< 10 nM

Report EC50 for CC(C)c1cc(Cc2c(Cl)cc(/C=C/CC(=O)O)cc2Cl)ccc1O [Compound 15]
10 to 100 nM

Annotate the compound Cc1cc(NCC(=O)O)cc(Cl)c1Cc1ccc(O)c(C(C)C)c1F [Compound 247] with its measured EC50.
10 to 100 nM
